Experiment: COS7 lysate on small-molecule microarray, probe aHis, 635 nm (AID 1123);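 note: z-score combines 667nm fluorescence intensity with signal-to-noise per printed compound spot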
Conditions: COS7 cell lysate, fluorescence, higher = more signal
Could you label it MET if measured composite z-score is 0.9 or higher, and NOT MET otherwise?

Problem: Is composite z-score at least 0.9? Consider `O=C1O[C@H](c2ccccc2)[C@H](c2ccccc2)N2[C@H]1[C@@H](C(=O)NC[C@H](O)c1ccccc1)[C@]1(C(=O)Nc3ccc(C#CC4=CCCCC4)cc31)[C@H]2c1ccc(OCCO)cc1`
Result: NOT MET

Problem: Is composite z-score at least 0.9? Consider `C=C(COC)/C(=C/C[C@@H](OC(C)=O)c1cccc(OCCO)c1)c1cc(C(=O)OC)ccc1OC`
Result: NOT MET

Problem: Is composite z-score at least 0.9? Consider C=CCC(OC(C)=O)[C@@H]1[C@@H](N(Cc2ccc(-c3ccccc3)cc2)C(=O)c2ccc(-c3ccccc3)cc2)c2cc(OCCCO)ccc2N1C(=O)Cc1ccc(OC)cc1 (stereo partly specified)
Result: NOT MET

Problem: Is composite z-score at least 0.9? Consider `CCCC=C(CCC)[C@@H](NS(=O)(=O)c1ccc(C(F)(F)F)cc1)c1ccc(-c2ccccc2)cc1`
Result: MET

Problem: Is composite z-score at least 0.9? Consider `C=CCN1C(=O)[C@@]2(O[C@@H](CCn3cc([C@H](O)c4ccccc4)nn3)[C@H]([Si](C)(C)c3ccc(OC)cc3)[C@H]2C)c2cc(N3CCOC3=O)ccc21`
Result: MET

Problem: Is composite z-score at least 0.9? Consider `Cc1ccc(S[C@]2(C(=O)NCCCN(C)C)CC(=O)N(Cc3ccccc3)[C@@H]2c2ccc(CO)cc2I)cc1`
Result: MET

Values were extracted from PubChem BioAssay.
